Every entry's value here was drawn from patent US20220048967A1.

Target: T1, human gastric inhibitory peptide receptor (GIPR) (human, UniProt P48546 22-466); note: reference of the scale not given here
T1 sequence (looked up): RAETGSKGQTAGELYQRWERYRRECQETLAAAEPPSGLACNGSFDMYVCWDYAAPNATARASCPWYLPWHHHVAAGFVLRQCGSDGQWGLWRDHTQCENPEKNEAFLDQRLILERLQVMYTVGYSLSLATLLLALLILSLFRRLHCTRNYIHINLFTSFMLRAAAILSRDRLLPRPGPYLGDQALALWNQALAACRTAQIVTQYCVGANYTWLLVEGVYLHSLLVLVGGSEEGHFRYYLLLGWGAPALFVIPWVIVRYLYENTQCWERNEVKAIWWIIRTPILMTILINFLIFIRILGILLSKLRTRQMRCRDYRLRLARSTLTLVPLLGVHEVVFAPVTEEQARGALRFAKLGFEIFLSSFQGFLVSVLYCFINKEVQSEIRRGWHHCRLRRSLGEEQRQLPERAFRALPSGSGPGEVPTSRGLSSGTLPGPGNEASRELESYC
Assay: cell-based or functional assay
Recorded hGIPR cAMP EC50 ratio, one value per entry.
Keep the answer to the number alone.

Examples with answers:
INSERT INTO results (binder, value_kind, assay_result) VALUES
  ('YXEGTFTSDYSIXLDEKAQXAFIXYLIAGGPSSGAPPPS (not fully specified; Aib2, αMeL13, (2-[2-(2-Amino-ethoxy)-ethoxy]-acetyl)2-(γ-Glu)-CO-(CH2)18-CO2H on K17, Aib20, D-Glu24, C-terminal NH2) [Example 343]', 'hGIPR cAMP EC50 ratio', 1.84),
  ('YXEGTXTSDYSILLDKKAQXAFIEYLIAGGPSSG (Aib2, αMeF6, (2-[2-(2-Amino-ethoxy)-ethoxy]-acetyl)2-(γ-Glu)-CO-(CH2)16-CO2H on K17, Aib20, C-terminal NH2) [Example 309]', 'hGIPR cAMP EC50 ratio', 1.64),
  ('YXEGTFTSDYSILLDKKAQAAFIEYLIEGGPSSGAPPPS (Aib2, (2-[2-(2-Amino-ethoxy)-ethoxy]-acetyl)2-(γ-Glu)-CO-(CH2)18-CO2H on K17, C-terminal NH2) [Example 253]', 'hGIPR cAMP EC50 ratio', 0.684),
  ('XXEGTFTSDYSIXLDXKAQXAFIEYLIAGGPSSGAPPPS (D-Tyr1, Aib2, αMeL13, Orn16, (2-[2-(2-Amino-ethoxy)-ethoxy]-acetyl)2-(γ-Glu)-CO-(CH2)18-CO2H on K17, Aib20, C-terminal NH2) [Example 346]', 'hGIPR cAMP EC50 ratio', 0.604),
  ('XXEGTFTSDYSIXLDEKAQXAFIEYLIAGGPSSGAPPPS (not fully specified; D-Tyr1, Aib2, αMeL13, (2-[2-(2-Amino-ethoxy)-ethoxy]-acetyl)2-(γ-Glu)-CO-(CH2)18-CO2H on K17, Aib20, C-terminal NH2) [Example 341]', 'hGIPR cAMP EC50 ratio', 0.213);

Now for a further binder.
[Q] Give me measured hGIPR cAMP EC50 ratio, please, for this binder: YXEGTXTSDYSILLDXKAQXEFIXYLIEGGPSSGAPPPS (Aib2, αMeF(2F)6, Orn16, (2-[2-(2-Amino-ethoxy)-ethoxy]-acetyl)2-(γ-Glu)-CO-(CH2)16-CO2H on K17, Aib20, D-Glu24, C-terminal NH2) [Example 248]
[A] 5.08
